Data origin, for the record: patent US20160264649A1

Field: IC50, TZM-bl pseudovirus neutralization. Provide a value for each of the binders that follow.
- experimentalSystem: HIV-1 REJ04541 Env (HIV-1)
- protocolNotes: cell-based or functional assay
Report the figure in µg/mL without appending any unit label.

# binder 1503_H05 (PG16) (TCN-119) (antibody, V domains shown) VH: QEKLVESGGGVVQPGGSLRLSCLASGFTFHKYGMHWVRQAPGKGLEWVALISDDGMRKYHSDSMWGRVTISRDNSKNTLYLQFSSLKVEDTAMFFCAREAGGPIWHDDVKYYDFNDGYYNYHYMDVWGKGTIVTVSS VL: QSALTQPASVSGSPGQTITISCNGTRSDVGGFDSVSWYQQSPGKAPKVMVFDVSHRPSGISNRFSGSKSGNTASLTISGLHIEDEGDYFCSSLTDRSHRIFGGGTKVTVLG ; its IC50, TZM-bl pseudovirus neutralization = 0.22

IC50, TZM-bl pseudovirus neutralization reading for 1469_M23 (PG16) (TCN-118) (antibody, V domains shown) VH: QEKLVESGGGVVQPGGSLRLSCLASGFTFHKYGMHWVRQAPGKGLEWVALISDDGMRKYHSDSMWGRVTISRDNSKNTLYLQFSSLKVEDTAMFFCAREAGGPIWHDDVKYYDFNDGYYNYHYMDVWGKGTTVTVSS VL: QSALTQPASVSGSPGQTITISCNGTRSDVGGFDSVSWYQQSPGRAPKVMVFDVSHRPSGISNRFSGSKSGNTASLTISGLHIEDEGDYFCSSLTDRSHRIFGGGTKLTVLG : 0.39
